molecular target: Human TRPC6 (Homo sapiens); construct: expressed in transfected cells; test: Evaluation of TRPC6 channel inhibitory activity (1), FLIPR Calcium 5 Assay Kit, OAG stimulation (Compound Nos. 1-1293); assay type: cell-based; details: Human TRPC6 stably-expressing cells, OAG 30 μM, FLIPR Calcium 5 Assay Kit; read-out: Inhibitory activity (pIC50 class) (converted)
measure_name: IC50

[
  {
    "smi": "Cn1nc(N2CCCCC2)cc1Oc1cc(C#N)ccc1-c1ncc(CN)cn1",
    "tested_system": "Human TRPC6 (Homo sapiens)",
    "measure_name": "IC50",
    "observed": "< 10 nM"
  },
  {
    "smi": "CC(C)CNC(=O)c1cn(Cc2cc(C#N)ccc2-c2ccc(CCN)cc2)cn1",
    "tested_system": "Human TRPC6 (Homo sapiens)",
    "measure_name": "IC50",
    "observed": "> 1000 nM"
  },
  {
    "smi": "CN(C)c1nnc(Oc2cc(C#N)ccc2-c2ncc(CCN)cn2)s1",
    "tested_system": "Human TRPC6 (Homo sapiens)",
    "measure_name": "IC50",
    "observed": "10 to 1000 nM"
  },
  {
    "smi": "N#Cc1ccc(-c2ncc(CN)cn2)c(Oc2cnnc(NC3COC3)c2)c1",
    "tested_system": "Human TRPC6 (Homo sapiens)",
    "measure_name": "IC50",
    "observed": "> 1000 nM"
  },
  {
    "smi": "Cn1nc(C2CC2)cc1Oc1cc(C#N)ccc1-c1cc(N)nc2ccnn12",
    "tested_system": "Human TRPC6 (Homo sapiens)",
    "measure_name": "IC50",
    "observed": "> 1000 nM"
  },
  {
    "smi": "Cc1nc(Oc2cc(C#N)ccc2-n2cc([C@@H](O)CN)cn2)cc(-c2ccccc2C(F)(F)F)n1",
    "tested_system": "Human TRPC6 (Homo sapiens)",
    "measure_name": "IC50",
    "observed": "10 to 1000 nM"
  },
  {
    "smi": "NCCc1cnc(-c2ccc(Cl)cc2Oc2cnn(CC(F)F)c2)nc1",
    "tested_system": "Human TRPC6 (Homo sapiens)",
    "measure_name": "IC50",
    "observed": "> 1000 nM"
  },
  {
    "smi": "Cn1nc(-c2nccs2)cc1Oc1cc(C#N)ccc1-c1ncc([C@H](O)CN)cn1",
    "tested_system": "Human TRPC6 (Homo sapiens)",
    "measure_name": "IC50",
    "observed": "10 to 1000 nM"
  },
  {
    "smi": "Cc1ccc(-c2cc(Oc3cc(C#N)ccc3-c3ccc(CCN)nc3)n(C)n2)nc1",
    "tested_system": "Human TRPC6 (Homo sapiens)",
    "measure_name": "IC50",
    "observed": "10 to 1000 nM"
  },
  {
    "smi": "CCc1cc(Oc2cc(C#N)ccc2-c2ncc(CCN)cn2)n(C)n1",
    "tested_system": "Human TRPC6 (Homo sapiens)",
    "measure_name": "IC50",
    "observed": "< 10 nM"
  },
  {
    "smi": "N#Cc1ccc(-c2ccc(CCN)cc2)c(Oc2cnnc(OCC(F)(F)F)c2)c1",
    "tested_system": "Human TRPC6 (Homo sapiens)",
    "measure_name": "IC50",
    "observed": "> 1000 nM"
  },
  {
    "smi": "Cc1nc(-c2ccc(F)cc2)cn1Cc1cc(C#N)ccc1-c1ccc(CCN)cn1",
    "tested_system": "Human TRPC6 (Homo sapiens)",
    "measure_name": "IC50",
    "observed": "< 10 nM"
  },
  {
    "smi": "Cc1cc(Oc2cc(C#N)ccc2-c2ncc(CCN)cn2)cc(N2CC3CCC(C2)O3)n1",
    "tested_system": "Human TRPC6 (Homo sapiens)",
    "measure_name": "IC50",
    "observed": "< 10 nM"
  },
  {
    "smi": "Cc1nc(Oc2cc(C#N)ccc2-c2ncc(CCN)cn2)cc(-c2ncc(C)s2)n1",
    "tested_system": "Human TRPC6 (Homo sapiens)",
    "measure_name": "IC50",
    "observed": "10 to 1000 nM"
  },
  {
    "smi": "N#Cc1ccc(-c2ncc(CCN)cn2)c(Oc2cnn(CC(F)(F)F)c2)c1",
    "tested_system": "Human TRPC6 (Homo sapiens)",
    "measure_name": "IC50",
    "observed": "10 to 1000 nM"
  },
  {
    "smi": "N#Cc1ccc(-c2ncc(CN)cn2)c(Oc2cnnc(N3CCOCC3)c2)c1",
    "tested_system": "Human TRPC6 (Homo sapiens)",
    "measure_name": "IC50",
    "observed": "10 to 1000 nM"
  }
]

###

IC50 values by entry
Target: Human TRPC6 (Homo sapiens)
Construct: expressed in transfected cells
Sequence (Q9Y210 1-931): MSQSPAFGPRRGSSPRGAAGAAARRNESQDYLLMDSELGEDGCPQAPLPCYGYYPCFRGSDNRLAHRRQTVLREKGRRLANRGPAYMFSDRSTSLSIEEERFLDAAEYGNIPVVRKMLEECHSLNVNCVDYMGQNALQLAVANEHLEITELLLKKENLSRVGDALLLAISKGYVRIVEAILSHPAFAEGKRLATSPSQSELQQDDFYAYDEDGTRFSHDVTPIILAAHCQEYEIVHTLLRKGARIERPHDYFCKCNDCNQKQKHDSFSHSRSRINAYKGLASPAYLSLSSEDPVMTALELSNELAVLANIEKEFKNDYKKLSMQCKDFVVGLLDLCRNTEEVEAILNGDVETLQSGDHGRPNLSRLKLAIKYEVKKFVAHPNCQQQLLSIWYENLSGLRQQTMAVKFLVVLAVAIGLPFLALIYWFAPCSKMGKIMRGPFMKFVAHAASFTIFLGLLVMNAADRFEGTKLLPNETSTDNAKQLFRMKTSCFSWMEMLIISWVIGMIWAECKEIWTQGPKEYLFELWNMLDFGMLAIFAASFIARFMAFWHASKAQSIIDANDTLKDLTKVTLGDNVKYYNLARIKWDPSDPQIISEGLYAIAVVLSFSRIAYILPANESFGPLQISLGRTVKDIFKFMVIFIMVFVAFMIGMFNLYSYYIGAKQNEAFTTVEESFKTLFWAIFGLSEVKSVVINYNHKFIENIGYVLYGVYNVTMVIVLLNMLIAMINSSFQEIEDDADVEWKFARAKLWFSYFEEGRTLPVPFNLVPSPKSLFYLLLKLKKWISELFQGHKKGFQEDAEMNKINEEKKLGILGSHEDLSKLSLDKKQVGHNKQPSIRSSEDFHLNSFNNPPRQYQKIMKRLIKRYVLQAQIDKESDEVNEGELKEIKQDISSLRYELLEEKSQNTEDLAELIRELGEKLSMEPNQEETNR
Assay: Evaluation of TRPC6 channel inhibitory activity (1), FLIPR Calcium 5 Assay Kit, OAG stimulation (Compound Nos. 1-1293)
Assay type: cell-based
Conditions: Human TRPC6 stably-expressing cells, OAG 30 μM, FLIPR Calcium 5 Assay Kit; read-out: Inhibitory activity (pIC50 class) (converted)

[
  {
    "molecule": "Cc1nc(Oc2cc(C#N)ccc2-c2ccc(CCN)cc2)cc(-c2cccs2)n1 [Compound 33]",
    "tested_system": "Human TRPC6 (Homo sapiens)",
    "IC50": "< 10 nM"
  },
  {
    "molecule": "Cc1cc(Oc2cc(C#N)ccc2-c2ccc(CC3(N)COC3)cn2)cc(N2CCOCC2)n1 [compound 562]",
    "tested_system": "Human TRPC6 (Homo sapiens)",
    "IC50": "< 10 nM"
  },
  {
    "molecule": "Cc1nc(Oc2cc(C#N)ccc2-c2ccc(C(O)CN)c(CC#N)c2)cc(N2CCOCC2)n1 (stereo not drawn) [Compound 158]",
    "tested_system": "Human TRPC6 (Homo sapiens)",
    "IC50": "10 to 1000 nM"
  },
  {
    "molecule": "N#Cc1ccc(-c2ncc(CCN)cn2)c(Oc2nnc(N3CC(F)C3)s2)c1 [compound 722]",
    "tested_system": "Human TRPC6 (Homo sapiens)",
    "IC50": "10 to 1000 nM"
  },
  {
    "molecule": "CN(C)c1nc(-c2ccc(C#N)cc2Oc2cc(-c3ccccn3)nn2C)nc2c1CNCC2 [compound 762]",
    "tested_system": "Human TRPC6 (Homo sapiens)",
    "IC50": "> 1000 nM"
  },
  {
    "molecule": "N#Cc1ccc(-c2ccc(CC3(N)COC3)cn2)c(Oc2cc(N3CCCC3)ncc2C#N)c1 [compound 738]",
    "tested_system": "Human TRPC6 (Homo sapiens)",
    "IC50": "10 to 1000 nM"
  },
  {
    "molecule": "Cn1nc(-c2ccccc2)cc1Oc1cc(C#N)ccc1-n1cc(C(O)CN)cn1 (stereo not drawn) [Compound 204]",
    "tested_system": "Human TRPC6 (Homo sapiens)",
    "IC50": "< 10 nM"
  },
  {
    "molecule": "Cn1nc(C2CCOC2)cc1Oc1cc(C#N)ccc1-c1ccc(CCN)cn1 (stereo not drawn) [compound 496]",
    "tested_system": "Human TRPC6 (Homo sapiens)",
    "IC50": "< 10 nM"
  },
  {
    "molecule": "CC(C)(C)CCOc1cc(Oc2cc(C#N)ccc2-c2ccc(CCN)cc2)cnn1 [Compound 126]",
    "tested_system": "Human TRPC6 (Homo sapiens)",
    "IC50": "> 1000 nM"
  }
]

Source of measurements: patent US20230167073A1
